- Assay target: indoleamine 2,3-dioxygenase (IDO) in Hela cells induced by IFN-γ (Homo sapiens (Human), UniProt P14902)
- Sequence (P14902 whole entry): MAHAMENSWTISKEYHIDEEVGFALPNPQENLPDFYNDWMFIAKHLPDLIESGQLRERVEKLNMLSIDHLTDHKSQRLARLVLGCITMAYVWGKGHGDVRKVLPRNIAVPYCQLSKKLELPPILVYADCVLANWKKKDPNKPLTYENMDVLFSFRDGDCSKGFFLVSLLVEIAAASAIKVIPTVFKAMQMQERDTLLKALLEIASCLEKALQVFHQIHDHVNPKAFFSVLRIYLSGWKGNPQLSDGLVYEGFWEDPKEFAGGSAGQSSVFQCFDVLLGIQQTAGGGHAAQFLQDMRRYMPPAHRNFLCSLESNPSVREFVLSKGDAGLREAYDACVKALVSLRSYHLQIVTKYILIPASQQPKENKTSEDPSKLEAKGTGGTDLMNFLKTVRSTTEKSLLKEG
- Assay info: IDO Cellular Activity Inhibition Assay (Ehrlich method)
- Condition notes: 24 hours, OD490
pIC50: −log10 of the molar value.
Metric name: pIC50

Sure, the documented pIC50 for `C[C@@H](C(=O)Nc1ccc(S(F)(F)(F)(F)F)cc1)[C@H]1CC[C@H](c2ccnc3ccc(F)cc32)CC1` is 6.00 to 6.70

For each listed entry, give its pIC50.
1. C[C@@H](C(=O)Nc1cccc(S(F)(F)(F)(F)F)c1)[C@H]1CC[C@@H](c2ccnc3ccc(F)cc32)CC1
2. C[C@@H](C(=O)Nc1ccc(S(F)(F)(F)(F)F)cc1)C1CCC(c2ccnc3ccnn23)CC1 (stereo partly shown)
3. CC(NC(=O)c1ccc(S(F)(F)(F)(F)F)cc1)[C@H]1CC[C@@H](c2ccnc3ccc(F)cc32)CC1 (stereo partly shown)
4. Cc1cc([C@H]2CC[C@@H]([C@@H](C)C(=O)Nc3ccc(S(F)(F)(F)(F)F)cc3)CC2)ccn1
5. C[C@@H](C(=O)Nc1ccc(S(F)(F)(F)(F)F)cc1)[C@H]1CC[C@@H](c2ccnc3ccc(F)cc32)CC1

Result:
6.00 to 6.70
6.70 to 7.30
> 7.30
> 7.30
> 7.30

Sure, the documented pIC50 for O=C(CC1(O)CCC(c2ccnc3ccc(F)cc23)CC1)Nc1ccc(S(F)(F)(F)(F)F)cc1 (stereo not shown) is > 7.30
